Entries annotated with measured pKi
- system.tested: Human recombinant LSD1 protein (Homo sapiens, UniProt O60341)
- test.method.notes: LSD1 inhibition, Amplex Red peroxide/peroxidase-coupled demethylase assay
- condition.notes: Ki range class
pKi: −log10 of the molar value. Counter-ions that a name gives are not always drawn.

Q: Recall and state the measured pKi for CN1CCN(CCN[C@@H]2C[C@H]2c2ccc(OCc3ccccc3)cc2)CC1 (relative stereo) [Example 10, dihydrochloride salt] .
A: 7.00 to 9.00

Q: Read the entry CCOCCN[C@@H]1C[C@H]1c1ccccc1 (relative stereo) [Example 16, hydrochloride] and write its reported pKi.
A: 6.00 to 7.00

Q: Please report pKi for the following compound: CN1CCN(CCN[C@@H]2C[C@H]2c2ccccc2)CC1 (relative stereo) [Example 1, dihydrochloride salt]
A: 7.00 to 9.00

Q: Retrieve pKi measured for FC(F)(F)c1cccc(-c2ccc([C@@H]3C[C@H]3NCCNC3CC3)cc2)c1 (relative stereo) [Example 14] and print it.
A: 6.00 to 7.00

Q: Given the compound CC(C)CSCCN[C@@H]1C[C@H]1c1ccccc1 (relative stereo) [Example 15, hydrochloride] , write its reported pKi.
A: 6.00 to 7.00

Q: Give the measured pKi for c1ccc([C@@H]2C[C@H]2NCCN2CCCCC2)cc1 (relative stereo) [Example 9]
A: 7.00 to 9.00

Q: Check the records and state pKi for CN(C)CCNCCN[C@@H]1C[C@H]1c1ccccc1 (relative stereo) [Example 3]
A: 6.00 to 7.00

Q: Consider the compound c1ccc([C@@H]2C[C@H]2NCCNC2CC2)cc1 (relative stereo) [Example 2, dihydrochloride salt] and give its recorded pKi.
A: 6.00 to 7.00

====

- system.tested: Human recombinant monoamine oxidase MAO-A (Homo sapiens, UniProt P21397)
- Construct: purchased Sigma Aldrich
- Sequence (P21397 1-527): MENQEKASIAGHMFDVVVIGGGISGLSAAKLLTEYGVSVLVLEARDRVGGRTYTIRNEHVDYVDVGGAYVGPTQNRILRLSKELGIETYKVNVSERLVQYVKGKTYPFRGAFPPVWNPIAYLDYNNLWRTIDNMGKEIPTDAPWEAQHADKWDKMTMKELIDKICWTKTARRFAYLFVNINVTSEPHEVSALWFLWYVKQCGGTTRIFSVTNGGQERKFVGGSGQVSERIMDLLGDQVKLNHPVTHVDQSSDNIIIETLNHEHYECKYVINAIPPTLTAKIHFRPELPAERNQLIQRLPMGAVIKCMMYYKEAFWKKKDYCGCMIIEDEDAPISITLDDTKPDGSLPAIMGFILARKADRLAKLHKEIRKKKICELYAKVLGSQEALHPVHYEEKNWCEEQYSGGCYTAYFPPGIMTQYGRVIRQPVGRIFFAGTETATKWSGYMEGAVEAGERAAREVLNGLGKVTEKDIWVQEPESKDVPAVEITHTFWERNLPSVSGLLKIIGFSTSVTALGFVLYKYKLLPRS
- test.method.notes: MAO-A kynuramine fluorescence inhibition assay
- Format: biochemical
- condition.notes: Ki range class; read-out: MAO A (Ki)
Where a name gives a salt, the structure may show the parent alone.
observation.type: Ki

These solved cases illustrate the format of a correct answer.
{"molecule": "CC(C)CSCCN[C@@H]1C[C@H]1c1ccccc1 (relative stereo) [Example 15, hydrochloride]", "system.tested": "Human recombinant monoamine oxidase MAO-A (Homo sapiens, UniProt P21397)", "Ki": "1 to 40 µM"}
{"molecule": "COCCN[C@@H]1C[C@H]1c1ccccc1 (relative stereo) [Example 17, hydrochloride]", "system.tested": "Human recombinant monoamine oxidase MAO-A (Homo sapiens, UniProt P21397)", "Ki": "1 to 40 µM"}

Q: Print Human recombinant monoamine oxidase MAO-A (Homo sapiens, UniProt P21397) Ki for FC(F)(F)c1cccc(-c2ccc([C@@H]3C[C@H]3NCCNC3CC3)cc2)c1 (relative stereo) .
A: 1 to 40 µM

Q: Give measured Ki for CN(C)[C@@H]1CCN(CCN[C@H]2CC2c2ccccc2)C1 (some centres unmarked) (Human recombinant monoamine oxidase MAO-A (Homo sapiens, UniProt P21397)).
A: 1 to 40 µM

Origin of values: patent US8859555B2
